assayMethodText: Inhibition of cPLA2alpha
Rule: IC50 below 0.8 µM gives y, anything at or above gives n.

Please review the entries below; each comes with its answer.
Cn1ccnc1SCCCCOc1ccc(OCC(=O)COc2ccc(C(=O)O)cc2)cc1 : n
O=C(COc1ccc(SCCCCSc2nccs2)cc1)COc1ccc(C(=O)O)cc1 : y
O=C(COc1ccc(C(=O)O)cc1)COc1ccc(C(=O)NCCCCc2ccccc2)cc1 : n

Inquiry: Threshold test, IC50 < 0.8 µM: CN(CCc1ccccc1)C(=O)CSc1ccc(OCC(=O)COc2ccc(C(=O)O)cc2)cc1
Reply text: n

Inquiry: Field: below-cutoff. Rule: recorded IC50 strictly less than 0.8 µM. Subject: O=C(COc1ccc(SCCCCCc2ccccc2)cc1)COc1ccc(C(=O)O)cc1
Reply text: y

The reported numbers originate from ChEMBL document CHEMBL1944552.
